- System: Tov-21-G
- measurement.protocol: Primary qHTS to identify gynecologic anti-cancer compounds using libraries of approved drugs and bioactive compounds (AID 1345084); also: nearly all actives have a fitted effect of over 55% in size
- experimental.parameters: Gynecologic cancer cell panel viability, ATPlite luminescence, 48 h; series mostly up to 57.5 µM
Records with an inconclusive call do not appear. The source made the active and inactive calls. Calls follow the shape of the dose curve; as a rule, active = well fitted cell-killing curve with a large enough effect; inconclusive = small, poorly fitted or top-dose-only effect, or effect the other way; inactive = flat fitted curve, though single readings scatter.
Permitted responses: 1 = active, 0 = inactive

What was the test verdict on Cc1nc(NC(=O)N2CCC[C@H]2C(N)=O)sc1-c1ccnc(C(C)(C)C(F)(F)F)c1 ?
0

What was the test verdict on COc1cc2ncnc(Oc3ccc(CC(=O)Nc4cnn(C(C)C)c4)cc3)c2cc1OC ?
0

What was the test verdict on CCCc1cc(C)[nH]c(=O)c1CNC(=O)c1cc(-c2ccc(N3CCN(C(C)C)CC3)nc2)cc2c1cnn2C(C)C ?
0

What was the test verdict on C=C1C(=O)O[C@H]2C3=C(C)CCC[C@]3(C)C(=O)C[C@@H]12 ?
1

What was the test verdict on Fc1ccc(-c2nc(-c3c(F)cccc3F)[nH]c2-c2ccncc2)cc1 ?
0
